The measured values listed here are drawn from patent US20240132624A1.

# test system: T1, cyno FcRn/b2M (cyno, UniProt Q8SPV9 24-297; Q8SPW0 21-119, biotinylated)
# T1 construct: bought recombinant biotinylated protein (Immunitrack ITF05 or ACRO FCM-C82W5); also called cFcRn; cFcRn/cb2M
# T1 sequence (Q8SPV9 24-297 limits assumed, chain 1 of 2): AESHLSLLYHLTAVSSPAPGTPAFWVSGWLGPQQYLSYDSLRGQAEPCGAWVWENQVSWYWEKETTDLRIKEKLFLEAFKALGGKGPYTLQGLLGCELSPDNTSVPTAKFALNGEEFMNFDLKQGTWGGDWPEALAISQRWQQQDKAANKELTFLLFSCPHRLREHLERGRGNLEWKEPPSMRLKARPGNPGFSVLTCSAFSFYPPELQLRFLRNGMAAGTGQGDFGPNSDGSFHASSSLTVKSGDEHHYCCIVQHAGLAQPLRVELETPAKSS
# T1 sequence (Q8SPW0 21-119 limits assumed, chain 2 of 2): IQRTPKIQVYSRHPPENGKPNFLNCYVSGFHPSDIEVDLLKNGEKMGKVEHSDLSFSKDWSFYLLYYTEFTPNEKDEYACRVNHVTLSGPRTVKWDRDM
# procedure text: SPR pH 6.0
observation type: Kd (nM)
Quick note: give the figure in nM, leave out the unit.

Prompt: Bench note: what Kd did T026301266 (other, tetravalent ISVD construct; also called X-FcRn-Y-ALB23002) VHH 1: EVQLVESGGGVVQPGGSLRLSCAASGFTFSSYAMYWVRQAPGKGLEWVSAISSGGGSTDYADSVKGRFTISRDNSKNTLYLQMNSLRPEDTALYYCAADTLYTSLTWYSYWGQGTLVTVSS VHH 2: EVQLVESGGGVVQPGGSLRLSCAASGFTFRSFGMSWVRQAPGKGPEWVSSISGSGSDTLYADSVKGRFTISRDNSKNTLYLQMNSLRPEDTALYYCTIGGSLSRSSQGTLVTVSSA show?
Response: 26

Prompt: Bench note: what Kd did T026301259 (bispecific antibody, not shown: small tags and cut ends, tetravalent ISVD construct; also called X-Y-FcRn-ALB23002) EVQLVESGGGVVQPGGSLRLSCAASGFTFSSYAMYWVRQAPGKGLEWVSAISSGGGSTDYADSVKGRFTISRDNSKNTLYLQMNSLRPEDTALYYCAADTLYTSLTWYSYWGQGTLVTVSSGGGGSGGGSEVQLVESGGGVVQPGGSLRLSCAASGFTFRSFGMSWVRQAPGKGPEWVSSISGSGSDTLYADSVKGRFTISRDNSKNTLYLQMNSLRPEDTALYYCTIGGSLSRSSQGTLVTVSSA show?
Response: 15

Prompt: Bench note: what Kd did T026301366 (bispecific antibody, not shown: small tags and cut ends, tetravalent ISVD construct; also called X-Y-FcRn(W100cS)-35GS-ALB23002) EVQLVESGGGVVQPGGSLRLSCAASGFTFSSYAMYWVRQAPGKGLEWVSAISSGGGSTDYADSVKGRFTISRDNSKNTLYLQMNSLRPEDTALYYCAADTLYTSLTSYSYWGQGTLVTVSSGGGGSGGGGSGGGGSGGGGSGGGGSGGGGSGGGGSEVQLVESGGGVVQPGGSLRLSCAASGFTFRSFGMSWVRQAPGKGPEWVSSISGSGSDTLYADSVKGRFTISRDNSKNTLYLQMNSLRPEDTALYYCTIGGSLSRSSQGTLVTVSSA show?
Response: 180

Prompt: Bench note: what Kd did T026301257 (bispecific antibody, not shown: small tags and cut ends, tetravalent ISVD construct; also called X-Y-FcRn-35GS-ALB23002) EVQLVESGGGVVQPGGSLRLSCAASGFTFSSYAMYWVRQAPGKGLEWVSAISSGGGSTDYADSVKGRFTISRDNSKNTLYLQMNSLRPEDTALYYCAADTLYTSLTWYSYWGQGTLVTVSSGGGGSGGGGSGGGGSGGGGSGGGGSGGGGSGGGGSEVQLVESGGGVVQPGGSLRLSCAASGFTFRSFGMSWVRQAPGKGPEWVSSISGSGSDTLYADSVKGRFTISRDNSKNTLYLQMNSLRPEDTALYYCTIGGSLSRSSQGTLVTVSSA show?
Response: 20
